# runDescription: The drug is tested on Blautia luti strain: DSM14534 for biotransformation. The drug concentrations were measured before and after a 12-h incubation by liquid-chromatography-coupled mass spectrometry (LC–MS)
# Format: ADME
# Set-up: dose 2 uM, timepoint 0 vs 12 hours
# measurementParameters: 2 µM
endpoint: Bacterial Biotransformation

Observe how each entry below is paired with its result.
Form: compound = COc1cc(C(=O)NCc2ccc(OCCN(C)C)cc2)cc(OC)c1OC [TRIMETHOBENZAMIDE] ; Bacterial Biotransformation = Compound NOT metabolized

Bacterial Biotransformation reported for this compound Br.CN1CCC[C@@H]1Cc1c[nH]c2ccc(CCS(=O)(=O)c3ccccc3)cc12 [ELETRIPTAN HYDROBROMIDE] : Compound NOT metabolized

The measured Bacterial Biotransformation associated with OCCN(CCO)c1nc(N2CCCCC2)c2nc(N(CCO)CCO)nc(N3CCCCC3)c2n1 reads Compound NOT metabolized

The reported value for CN1CCN(C(=O)O[C@H]2c3nccnc3C(=O)N2c2ccc(Cl)cn2)CC1 in terms of Bacterial Biotransformation is Compound NOT metabolized

Query Br.CN(C)CCCC1(c2ccc(F)cc2)OCc2cc(C#N)ccc21 (stereo not drawn) [CITALOPRAM HYDROBROMIDE] yields Bacterial Biotransformation of Compound NOT metabolized

Sample CC(C)N(CCC(C(N)=O)(c1ccccc1)c1ccccn1)C(C)C.O=P(O)(O)O (stereo not drawn) [DISOPYRAMIDE PHOSPHATE] ; Bacterial Biotransformation observed: Compound NOT metabolized

// switching to the query compound
# Bacterial Biotransformation (compound: CC(CCc1ccccc1)NCC(O)c1ccc(O)c(C(N)=O)c1 (stereo not drawn) ) is Compound NOT metabolized

---

# runDescription: The drug is tested on Providencia rettgeri strain: DSM1131 for biotransformation. The drug concentrations were measured before and after a 12-h incubation by liquid-chromatography-coupled mass spectrometry (LC–MS)
# Type: ADME
# Set-up: dose 2 uM, timepoint 0 vs 12 hours
# measurementParameters: 2 µM
endpoint: Bacterial Biotransformation

Below, 5 compounds whose answers are already recorded.
compound CCOc1cc(CC(=O)N[C@@H](CC(C)C)c2ccccc2N2CCCCC2)ccc1C(=O)O [REPAGLINIDE] , Bacterial Biotransformation observed: Compound NOT metabolized

For reference, reported Bacterial Biotransformation for O=C(O)CCc1nc(-c2ccccc2)c(-c2ccccc2)o1 [OXAPROZIN] stands at Compound NOT metabolized

Entry CN1CCC[C@@H]1CCO[C@](C)(c1ccccc1)c1ccc(Cl)cc1.O=C(O)/C=C/C(=O)O [CLEMASTINE FUMARATE] — recorded Bacterial Biotransformation = Compound metabolized

Reported Bacterial Biotransformation ( CN1CCC(OC(c2ccccc2)c2ccccc2)CC1 ) = Compound NOT metabolized

The recorded Bacterial Biotransformation for entry CC[C@@H](CO)NC(=O)[C@@H]1C=C2c3cccc4c3c(cn4C)C[C@H]2N(C)C1.O=C(O)/C=C\C(=O)O [METHYSERGIDE MALEATE] equals Compound metabolized

Please turn your attention to the following entry.
The compound listed as Br.CN(C)CCCC1(c2ccc(F)cc2)OCc2cc(C#N)ccc21 (stereo unspecified) [CITALOPRAM HYDROBROMIDE] has a reported Bacterial Biotransformation of Compound NOT metabolized

---

# measurementParameters: victivallis vadensis, 12 h, 2 µM
# Description: The drug is tested on Victivallis vadensis strain: ATCC BAA-548 for biotransformation. The drug concentrations were measured before and after a 12-h incubation by liquid-chromatography-coupled mass spectrometry (LC–MS)
endpoint: Bacterial Biotransformation

The molecule identified as CCCCC(=O)N(Cc1ccc(-c2ccccc2-c2nnn[nH]2)cc1)[C@H](C(=O)O)C(C)C registered its Bacterial Biotransformation at Compound NOT metabolized

Given item CC1Cc2ccccc2N1NC(=O)c1ccc(Cl)c(S(N)(=O)=O)c1 (centres undefined) [INDAPAMIDE] , the value recorded as its Bacterial Biotransformation is Compound NOT metabolized

In plain terms, N#Cc1ccc2c(c1)N(CCCN1CCC(O)CC1)c1ccccc1S2 has a documented Bacterial Biotransformation of Compound NOT metabolized

---

# measurementParameters: bacteroides thetaiotaomicron, 12 h, 2 µM
# Description: The drug is tested on Bacteroides thetaiotaomicron strain: 3731 for biotransformation. The drug concentrations were measured before and after a 12-h incubation by liquid-chromatography-coupled mass spectrometry (LC–MS)
endpoint: Bacterial Biotransformation

Bacterial Biotransformation recorded for this compound, CC(C)NCC(O)c1ccc(NS(C)(=O)=O)cc1 (configuration not stated) , is Compound NOT metabolized

Field Bacterial Biotransformation (entry CN(CCOc1ccc(CC2SC(=O)NC2=O)cc1)c1ccccn1.O=C(O)/C=C\C(=O)O (configuration not stated) [ROSIGLITAZONE MALEATE] ) reads Compound NOT metabolized

The recorded Bacterial Biotransformation for entry O=C(O)CCc1nc(-c2ccccc2)c(-c2ccccc2)o1 equals Compound metabolized

// Bacterial Biotransformation lookup, compound = CCN(CC)CCNC(=O)c1cc(S(C)(=O)=O)ccc1OC [TIAPRIDE] , result: Compound NOT metabolized

Form field Bacterial Biotransformation, entry CC[C@@]1(O)C(=O)OCc2c1cc1n(c2=O)Cc2cc3c(CN(C)C)c(O)ccc3nc2-1 : Compound NOT metabolized

# evaluate next
The reported value for O=C(O[C@H]1C[C@H]2CC[C@@H](C1)[N+]21CCCC1)C(O)(c1ccccc1)c1ccccc1.[Cl-] [TROSPIUM CHLORIDE] in terms of Bacterial Biotransformation is Compound NOT metabolized

---

# runDescription: The drug is tested on Bifidobacterium breve strain: DSM20213 for biotransformation. The drug concentrations were measured before and after a 12-h incubation by liquid-chromatography-coupled mass spectrometry (LC–MS)
# measurementParameters: 2 µM
endpoint: Bacterial Biotransformation

Some entries whose results are on file:
Entry CN(CCOc1ccc(CC2SC(=O)NC2=O)cc1)c1ccccn1.O=C(O)/C=C\C(=O)O (centres undefined) [ROSIGLITAZONE MALEATE] — recorded Bacterial Biotransformation = Compound NOT metabolized

Bacterial Biotransformation reported for this compound COC(=O)Nc1nc2ccc(C(=O)c3ccccc3)cc2[nH]1 : Compound NOT metabolized

Input CC[C@@]1(O)C(=O)OCc2c1cc1n(c2=O)Cc2cc3c(CN(C)C)c(O)ccc3nc2-1 . Output Bacterial Biotransformation: Compound NOT metabolized

Measured Bacterial Biotransformation of CCN(CC)C(=O)C1(c2ccccc2)CC1CN (centres undefined) : Compound NOT metabolized

We now examine a further compound.
# Bacterial Biotransformation of O=C(CCCN1CCC2(CC1)C(=O)NCN2c1ccccc1)c1ccc(F)cc1 = Compound NOT metabolized

---

# runDescription: The drug is tested on Eubacterium hallii strain: DSM3353 for biotransformation. The drug concentrations were measured before and after a 12-h incubation by liquid-chromatography-coupled mass spectrometry (LC–MS)
# measurementParameters: anaerobutyricum hallii, 2 µM
endpoint: Bacterial Biotransformation

Use these answered entries as a reference point.
Summary for this compound, CCCc1nn(C)c2c(=O)[nH]c(-c3cc(S(=O)(=O)N4CCN(C)CC4)ccc3OCC)nc12.O=C(O)CC(O)(CC(=O)O)C(=O)O [SILDENAFIL CITRATE] : Bacterial Biotransformation is Compound NOT metabolized

According to the records, this compound O=C1NCC2(CCN(CCc3ccccc3)CC2)O1 [FENSPIRIDE] displays Bacterial Biotransformation of Compound NOT metabolized

// Bacterial Biotransformation lookup, compound = CC(C(=O)O)c1ccc2c(c1)Cc1cccnc1O2 (stereo not drawn) , result: Compound metabolized

The compound identified as Cc1cn([C@H]2C[C@H](N=[N+]=[N-])[C@@H](CO)O2)c(=O)[nH]c1=O registered its Bacterial Biotransformation at Compound NOT metabolized

Next compound, please.
Value of Bacterial Biotransformation reported for the compound CC(O)(CS(=O)(=O)c1ccc(F)cc1)C(=O)Nc1ccc(C#N)c(C(F)(F)F)c1 (stereo not drawn) [BICALUTAMIDE] is Compound NOT metabolized

---

# measurementParameters: segatella copri, 12 h, 2 µM
# Description: The drug is tested on Prevotella copri strain: DSM18205 for biotransformation. The drug concentrations were measured before and after a 12-h incubation by liquid-chromatography-coupled mass spectrometry (LC–MS)
endpoint: Bacterial Biotransformation

Example cases with answers are listed next.
Data point: Nc1nc2ccc(OC(F)(F)F)cc2s1 [RILUZOLE] ; Bacterial Biotransformation = Compound NOT metabolized

Record CC(C)C[C@H]1C(=O)N2CCC[C@H]2[C@]2(O)O[C@](NC(=O)[C@@H]3C=C4c5cccc6[nH]c(Br)c(c56)C[C@H]4N(C)C3)(C(C)C)C(=O)N12.CS(=O)(=O)O [BROMOCRIPTINE MESYLATE] , field Bacterial Biotransformation: Compound metabolized

The reported value for O=C(O)c1cc(/N=N/c2ccc(S(=O)(=O)Nc3ccccn3)cc2)ccc1O [SULFASALAZINE] in terms of Bacterial Biotransformation is Compound metabolized

The reported Bacterial Biotransformation of the molecule C[C@@H](CO)NC(=O)[C@@H]1C=C2c3cccc4[nH]cc(c34)C[C@H]2N(C)C1.O=C(O)/C=C\C(=O)O [ERGONOVINE MALEATE] was Compound metabolized

Bacterial Biotransformation recorded for this molecule, CN1[C@@H]2CC[C@H]1C[C@@H](OC(=O)c1c[nH]c3ccccc13)C2 [TROPISETRON] , is Compound NOT metabolized

Further cases:
Lab note: measured Bacterial Biotransformation of CN1CCC(=C2c3ccccc3CCc3cccnc32)CC1.O=C(O)/C=C\C(=O)O.O=C(O)/C=C\C(=O)O [AZATADINE MALEATE] was Compound NOT metabolized

For this molecule ( OC(Cn1cncn1)(Cn1cncn1)c1ccc(F)cc1F [FLUCONAZOLE] ), measured Bacterial Biotransformation is Compound NOT metabolized
